Entries and their measured activity score follow.
Experiment: Activators via SNCA 5'UTR binding, MLPCN (AID 1814)
Conditions: alpha-synuclein 5'UTR reporter, activators screen; hits give low values; tested at 7.5 µM
Hit rate of the full screen: of about 300,000 compounds, about 22,000 (7.3%) were called active. Inconclusive results (about 2%) are left out. The sample as a whole holds a higher share of actives than the screen did.
property-measured: activity score (%)

> print(dat)
                                    molecule  observed.result
 1  COc1cccc(/C=N/Nc2cc(C)nc(-c3ccccc3O)n2)c1O             82.8
 2        O=C(CSC1=NCCS1)Nc1nc(-c2ccccc2)cs1              -83
 3         O=C(NNC(=O)c1ccc(Cl)cc1Cl)c1cccs1             -115
 4  Cc1ccsc1C(=O)N/N=C/c1ccc([N+](=O)[O-])cc1             -154
 5       CN1CCN(c2ccc(NC(=O)c3ccccc3)cc2)CC1             -102
 6     CCOc1ccc(OCc2cccc(C(=O)N(CC)CC)c2)cc1             50.8
 7      COc1cccc2sc(Nc3nc(C)c(C(C)=O)s3)nc12             -179
 8     c1ccc(CCN2CN=C(Nc3nc4ccccc4o3)NC2)cc1             -174
 9        COc1ccccc1/C=N/Nc1nc(C)c(C(C)=O)s1             -154
10     FC(F)(F)c1ccnc(Oc2ccc(C3=NCCS3)cc2)c1             -169
11  Cc1c(C(=O)OC(C)C)sc(NC(=O)c2cccnc2)c1C#N            -80.1
12       CCSc1nsc(NC(=O)Nc2cccc(C(C)=O)c2)n1             -111
13       COc1cccc(C(=O)NNC(=O)c2cccc(F)c2)c1            -79.5
14  COc1ccc(C2NC(=O)c3ccccc3N2)cc1 (centres undefined)            -70.6
15   CC(=O)Nc1cccc(-c2csc(Nc3cccc(C)n3)n2)c1             -234
16  CCn1c(SCC(=O)Nc2cccc(F)c2)nnc1-c1cc2cc(Br)ccc2o1            -71.9
17  CCS(=O)(=O)N1Cc2ccccc2CC1C(=O)Nc1nc2ccc(F)cc2s1 (centres undefined)            -83.8
18  O=C(N/N=C/c1ccc([N+](=O)[O-])cc1)c1c[nH]c2ccccc12            -66.7
19  CCOc1ccc2[nH]c3nc(SCC(=O)NC4CCCC4)nnc3c2c1            -73.1
20              S=C(Nc1ccc2c(c1)OCO2)N1CCCC1            -93.7
21  Cc1cccc(C(=O)Nc2ccc3c(c2)C(=O)N(CC(C)C)C3=O)c1             -149
22  COc1ccc(CCn2c(=N)c(C(=O)NCc3ccco3)cc3c(=O)n4cccc(C)c4nc32)cc1            -87.1
23     Cc1ccc(NC(=O)c2sccc2C)cc1[N+](=O)[O-]             -217
24  CCCCCCOC(=O)NCC(O)c1ccccc1 (centres undefined)             -126
25      O=C1N=C(N2CCOCC2)S/C1=C\C=C/c1ccccc1             -170
26  COc1cccc(C(=O)Nc2ccc(N3CCN(C(=O)c4ccco4)CC3)cc2)c1             -184
27   O=C(Nc1ccc(N2CCOCC2)cc1)c1ccc2c(c1)OCO2             -121
28  CN(C)CCCN(C(=O)c1ccc(S(=O)(=O)N2CCCc3ccccc32)cc1)c1nc2ccc(F)cc2s1             74.2
29              CCNC(=O)CSc1nc(-c2ccccc2)cs1             -105
30             Nc1cccc(CCc2nc3ccccc3[nH]2)c1            -77.9
31  CC(C)c1cc(C(N)=O)c(NC(=O)c2cccc(COc3ccc(Br)cc3)c2)s1             -194
32               Nc1cc(N)nc(SCc2cccc(F)c2)n1             -147
33   COc1cc(OC)c(C(=O)Nc2ccc(N(C)C)cc2)cc1OC             -129
34             Cc1csc(NC(=S)Nc2cccc(Cl)c2)n1             -193
35            CSc1nc(-c2ccccc2)nc(C(Cl)Cl)n1              114
36           COc1cc2ccccc2cc1C(=O)Nc1ccccc1C             -118
37  CCOc1ccc(NC(=O)c2ccc(NC(=O)COC(=O)c3ccc(NC(=O)CC#N)cc3)cc2)cc1            -88.1
38        Cc1cccc(C(=O)NC(=S)N(C)C2CCCCC2)c1            -74.3
39              O=C(Nc1ccccc1)Nc1nc2ccccc2s1            -64.8
